Test system: U2OS
protocol: Incucyte cell viability with U2OS; further: unitless GR value; below 1 slowed growth and below 0 cell loss
Format: toxicity, cell-based
applied conditions: human, 12 h, 10 µM, compound concentration 10 uM, replicate number 2
recorded metric: Growth Rate
Give the figure only, with no unit attached.

Query string: Which Growth Rate is listed for COc1cc(-c2cn(C)c(=O)c3cnccc23)cc(OC)c1CN(C)C ?
Result string: 0.85

Query string: Which Growth Rate is listed for O=C(Nc1ccccc1Cl)c1cnc2ccc(C3CCNCC3)cn12.O=C(O)C(=O)O ?
Result string: 0.5

Query string: Which Growth Rate is listed for Cc1cc(Cn2c(N3CC4(CNC4)C3)nc3cc(Cl)cc(N4CCN(C)CC4)c32)cc(C)c1F ?
Result string: 0.82

Query string: Which Growth Rate is listed for CC(C)(C)c1cnc(CSc2cnc(NC(=O)C3CCN(CC(=O)NCCOCCOCCOCCNc4cccc5c4C(=O)N(C4CCC(=O)NC4=O)C5=O)CC3)s2)o1 (stereo not drawn) ?
Result string: 0.19

Query string: Which Growth Rate is listed for CCC(=O)O[C@]1(C(=O)CCl)[C@@H](C)C[C@H]2[C@@H]3CCC4=CC(=O)C=C[C@]4(C)[C@@]3(F)[C@@H](O)C[C@@]21C [CLOBETASOL PROPIONATE] ?
Result string: 0.76

###

Tested on: Fibroblast
protocol: Incucyte cell viability with human fibroblast; further: unitless GR value; below 1 slowed growth and below 0 cell loss
Assay type: toxicity, cell-based
applied conditions: 18 h, 10 µM, compound concentration 10 uM, replicate number 2
recorded metric: Growth Rate
Give the figure only, with no unit attached.

Completed entries (count: 3):
{"compound": "CC(C)CNc1nc(N2CCN(CC3CCCOC3)CC2)ncc1C(=O)NCc1ccccc1 (centres undefined)", "Growth Rate": -0.81}
{"compound": "CNc1nc(-c2cc(C(=O)N3CCN(Cc4ccc(Cl)cc4)CC3)c(Cl)cn2)cs1", "Growth Rate": -0.12}
{"compound": "Cc1cc(OCCC(C)(C)O)cc(C)c1-c1ccc(F)c2c1CC[C@H]2Oc1ccc2c(c1)OC[C@H]2CC(=O)O", "Growth Rate": 0.57}

Query string: Identify the measured Growth Rate of CN1CCN(C(=O)Cc2ccc(N/C(=C3\C(=O)Nc4cc(Cl)ccc43)c3ccccc3)cc2)CC1 for Fibroblast.
Result string: 0.21

Query string: Identify the measured Growth Rate of Cn1c2ccccc2c2c3c(c4c5ccccc5n(CCC#N)c4c21)CNC3=O for Fibroblast.
Result string: 0.88

Query string: Identify the measured Growth Rate of C1CCC(NC2CCCCC2)CC1.Cc1cc(Cl)ccc1S(=O)(=O)NC[C@H]1C2CCC(CC2)[C@@H]1/C=C\CCCC(=O)O for Fibroblast.
Result string: 0.9

Query string: Identify the measured Growth Rate of COc1cc(C(C)C)c(Oc2cnc(NC(CO)CO)nc2N)cc1I for Fibroblast.
Result string: 0.94

Query string: Identify the measured Growth Rate of CN[C@@H](C)C/C=C/c1cncc(OC(C)C)c1 for Fibroblast.
Result string: 0.72

Query string: Identify the measured Growth Rate of COc1ccc(CCN(C)CCCC(C#N)(c2cc(OC)c(OC)c(OC)c2)C(C)C)cc1OC.Cl (centres undefined) [GALLOPAMIL HYDROCHLORIDE] for Fibroblast.
Result string: 0.41

###

System: U2OS
protocol: Incucyte cell viability with U2OS; further: unitless GR value; below 1 slowed growth and below 0 cell loss
Assay type: toxicity, cell-based
applied conditions: human, 6 h, 10 µM, compound concentration 10 uM, replicate number 1
recorded metric: Growth Rate

Completed entries (count: 4):
{"chem smiles": "FC(F)(F)Oc1ccc(-c2ccc3nnc(C(F)(F)F)n3c2)cc1", "experimental result": 0.08}
{"chem smiles": "O=C(Nc1ccnc(NC(=O)C2CC2)c1)c1c(Cl)cccc1Cl", "experimental result": 0.46}
{"chem smiles": "Cc1cc(S(=O)(=O)N2CC(C)(C)c3cc(-c4ccc(C(F)(F)F)cc4)ccc32)ccc1OCC(=O)O", "experimental result": 0.69}
{"chem smiles": "CN(Cc1cccc(F)c1CNc1cc(F)c(S(=O)(=O)Nc2cscn2)c(F)c1)C(C)(C)C", "experimental result": 0.37}

Query string: Which Growth Rate is listed for Cc1cc(Cn2c(N3CC4(CNC4)C3)nc3cc(Cl)cc(N4CCN(C)CC4)c32)cc(C)c1F ?
Result string: 0.43
